Data provenance is patent US20240400708A1.

# measured.on: feline FcRn complex (FcRn-α subunit and β-microglobulin) (feline)
# assay.remarks: SPR (Biacore), FcRn on SA chip, pH 7.4
measured.quantity: Kd (nM)
Lab book: enter the figure in nM, no units written.

Example cases with answers are listed next.
INSERT INTO measurements (binder, unit_text, endpoint_value) VALUES
  ('feline IgG1a mutant ID No. 254: S428M, S434N (antibody, part only; not given: Variable domains, not shown: another chain or arm of the molecule) constant: ASTTAPSVFPLAPSCGTTSGATVALACLVLGYFPEPVTVSWNSGALTSGVHTFPAVLQASGLYSLSSMVTVPSSRWLSDTFTCNVAHPPSNTKVDKTVRKTDHPPGPKPCDCPKCPPPEMLGGPSIFIFPPKPKDTLSISRTPEVTCLVVDLGPDDSDVQITWFVDNTQVYTAKTSPREEQFNSTYRVVSVLPILHQDWLKGKEFKCKVNSKSLPSPIERTISKAKGQPHEPQVYVLPPAQEELSRNKVSVTCLIKSFHPPDIAVEWEITGQPEPENNYRTTPPQLDSDGTYFVYSKLSVDRSHWQRGNTYTCSVMHEALHNHHTQKSLTQSPGK', 'nM', 8.83),
  ('feline IgG1a mutant ID No. 319: S428Y, D312P, A431K, S434P (antibody, part only; not given: variable domains, not shown: another chain or arm of the molecule) constant: ASTTAPSVFPLAPSCGTTSGATVALACLVLGYFPEPVTVSWNSGALTSGVHTFPAVLQASGLYSLSSMVTVPSSRWLSDTFTCNVAHPPSNTKVDKTVRKTDHPPGPKPCDCPKCPPPEMLGGPSIFIFPPKPKDTLSISRTPEVTCLVVDLGPDDSDVQITWFVDNTQVYTAKTSPREEQFNSTYRVVSVLPILHQPWLKGKEFKCKVNSKSLPSPIERTISKAKGQPHEPQVYVLPPAQEELSRNKVSVTCLIKSFHPPDIAVEWEITGQPEPENNYRTTPPQLDSDGTYFVYSKLSVDRSHWQRGNTYTCSVYHEKLHPHHTQKSLTQSPGK', 'nM', 1080),
  ('feline IgG1a mutant ID No. 375: S252Y, S434R, S254V (antibody, part only; not given: Variable domains, not shown: another chain or arm of the molecule) constant: ASTTAPSVFPLAPSCGTTSGATVALACLVLGYFPEPVTVSWNSGALTSGVHTFPAVLQASGLYSLSSMVTVPSSRWLSDTFTCNVAHPPSNTKVDKTVRKTDHPPGPKPCDCPKCPPPEMLGGPSIFIFPPKPKDTLYIVRTPEVTCLVVDLGPDDSDVQITWFVDNTQVYTAKTSPREEQFNSTYRVVSVLPILHQDWLKGKEFKCKVNSKSLPSPIERTISKAKGQPHEPQVYVLPPAQEELSRNKVSVTCLIKSFHPPDIAVEWEITGQPEPENNYRTTPPQLDSDGTYFVYSKLSVDRSHWQRGNTYTCSVSHEALHRHHTQKSLTQSPGK', 'nM', 34.1),
  ('feline IgG1a mutant ID No. 308: P247V, S252H (antibody, part only; not given: Variable domains, not shown: another chain or arm of the molecule; small tags and cut ends) constant: ASTTAPSVFPLAPSCGTTSGATVALACLVLGYFPEPVTVSWNSGALTSGVHTFPAVLQASGLYSLSSMVTVPSSRWLSDTFTCNVAHPPSNTKVDKTVRKTDHPPGPKPCDCPKCPPPEMLGGPSIFIFPPKVKDTLHISRTPEVTCLVVDLGPDDSDVQITWFVDNTQVYTAKTSPREEQFNSTYRVVSVLPILHQDWLKGKEFKCKVNSKSLPSPIERTISKAKGQPHEPQVYVLPPAQEELSRNKVSVTCLIKSFHPPDIAVEWEITGQPEPENNYRTTPPQLDSDGTYFVYSKLSVDRSHWQRGNTYTCSVSHEALHSHHTQKSLTQSPGK', 'nM', 17.9);

**Query** Reported Kd for feline IgG1a mutant ID No. 291: S252Y, S428Y, Q311W, D312P, L314K (antibody, part only; not given: Variable domains, not shown: another chain or arm of the molecule; small tags and cut ends) constant: ASTTAPSVFPLAPSCGTTSGATVALACLVLGYFPEPVTVSWNSGALTSGVHTFPAVLQASGLYSLSSMVTVPSSRWLSDTFTCNVAHPPSNTKVDKTVRKTDHPPGPKPCDCPKCPPPEMLGGPSIFIFPPKPKDTLYISRTPEVTCLVVDLGPDDSDVQITWFVDNTQVYTAKTSPREEQFNSTYRVVSVLPILHWPWKKGKEFKCKVNSKSLPSPIERTISKAKGQPHEPQVYVLPPAQEELSRNKVSVTCLIKSFHPPDIAVEWEITGQPEPENNYRTTPPQLDSDGTYFVYSKLSVDRSHWQRGNTYTCSVYHEALHSHHTQKSLTQSPGK : what is it?
**Result** 16700

**Query** Reported Kd for feline IgG1a mutant ID No. 364: S252Y, S434R, D401R (antibody, part only; not given: Variable domains, not shown: another chain or arm of the molecule) constant: ASTTAPSVFPLAPSCGTTSGATVALACLVLGYFPEPVTVSWNSGALTSGVHTFPAVLQASGLYSLSSMVTVPSSRWLSDTFTCNVAHPPSNTKVDKTVRKTDHPPGPKPCDCPKCPPPEMLGGPSIFIFPPKPKDTLYISRTPEVTCLVVDLGPDDSDVQITWFVDNTQVYTAKTSPREEQFNSTYRVVSVLPILHQDWLKGKEFKCKVNSKSLPSPIERTISKAKGQPHEPQVYVLPPAQEELSRNKVSVTCLIKSFHPPDIAVEWEITGQPEPENNYRTTPPQLDSRGTYFVYSKLSVDRSHWQRGNTYTCSVSHEALHRHHTQKSLTQSPGK : what is it?
**Result** 24.4

**Query** Reported Kd for feline IgG1a mutant ID No. 283: S252Y, Q311W, D312P, L314K, S434Y (antibody, part only; not given: Variable domains, not shown: another chain or arm of the molecule) constant: ASTTAPSVFPLAPSCGTTSGATVALACLVLGYFPEPVTVSWNSGALTSGVHTFPAVLQASGLYSLSSMVTVPSSRWLSDTFTCNVAHPPSNTKVDKTVRKTDHPPGPKPCDCPKCPPPEMLGGPSIFIFPPKPKDTLYISRTPEVTCLVVDLGPDDSDVQITWFVDNTQVYTAKTSPREEQFNSTYRVVSVLPILHWPWKKGKEFKCKVNSKSLPSPIERTISKAKGQPHEPQVYVLPPAQEELSRNKVSVTCLIKSFHPPDIAVEWEITGQPEPENNYRTTPPQLDSDGTYFVYSKLSVDRSHWQRGNTYTCSVSHEALHYHHTQKSLTQSPGK : what is it?
**Result** 300

**Query** Reported Kd for feline IgG1a mutant ID No. 353: S252Y, S428M, S434F, S254V (antibody, part only; not given: Variable domains, not shown: another chain or arm of the molecule) constant: ASTTAPSVFPLAPSCGTTSGATVALACLVLGYFPEPVTVSWNSGALTSGVHTFPAVLQASGLYSLSSMVTVPSSRWLSDTFTCNVAHPPSNTKVDKTVRKTDHPPGPKPCDCPKCPPPEMLGGPSIFIFPPKPKDTLYIVRTPEVTCLVVDLGPDDSDVQITWFVDNTQVYTAKTSPREEQFNSTYRVVSVLPILHQDWLKGKEFKCKVNSKSLPSPIERTISKAKGQPHEPQVYVLPPAQEELSRNKVSVTCLIKSFHPPDIAVEWEITGQPEPENNYRTTPPQLDSDGTYFVYSKLSVDRSHWQRGNTYTCSVMHEALHFHHTQKSLTQSPGK : what is it?
**Result** 6.68
